# Tested on: Enterococcus sp.
# assayRemarks: in vitro antibacterial evaluation, MIC by broth dilution
# Assay type: cell-based
# details: Enterococcus faecalis (GC 3059); broth dilution, 18 hours at 35° C.
Could you please report measured MIC Enterococcus faecalis (GC 3059) for the items listed next?
Numbers only, in µg/mL.

Worked examples, 2 compounds total:
CC(c1ccccc1)C1NC(=O)CNC(=O)C(CO)NC(=O)C(C(O)C2CNC(=N)N2C2OC(CO)C(O)C(O)C2O)NC(=O)C(C(O)C2CNC(=N)N2)NC(=O)C(Cc2ccc(OC3OC(CO)C(OC4OC5COC(CC6CCCCC6)OC5C(O)C4O)C(O)C3O)cc2)NC1=O (stereo not shown)    2
CC(c1ccccc1)C1NC(=O)CNC(=O)C(CO)NC(=O)C(C(O)C2CNC(=N)N2C2OC(CO)C(O)C(O)C2O)NC(=O)C(C(O)C2CNC(=N)N2)NC(=O)C(Cc2ccc(OC3OC(CO)C(OC4OC5COC(C6CC=CCC6)OC5C(O)C4O)C(O)C3O)cc2)NC1=O (stereo not shown)    2

Here's the next entry for you.
Form field MIC Enterococcus faecalis (GC 3059), entry Cc1cccc(C2OCC3OC(OC4C(CO)OC(Oc5ccc(CC6NC(=O)C(C(C)c7ccccc7)NC(=O)CNC(=O)C(CO)NC(=O)C(C(O)C7CNC(=N)N7C7OC(CO)C(O)C(O)C7O)NC(=O)C(C(O)C7CNC(=N)N7)NC6=O)cc5)C(O)C4O)C(O)C(O)C3O2)c1 (stereo not shown) : 2

* * *

Could you please report measured MIC Coagulase Negative Staphylococcus (GC 6257) for the items listed next?
# Tested on: Staphylococcus sp.
# assayRemarks: in vitro antibacterial evaluation, MIC by broth dilution
# Format: cell-based
# details: broth dilution, 18 hours at 35° C.
Answers are plain numbers, in µg/mL.

COc1ccc(COCC2OC(OC3C(CO)OC(Oc4ccc(CC5NC(=O)C(C(C)c6ccccc6)NC(=O)CNC(=O)C(CO)NC(=O)C(C(O)C6CNC(=N)N6C6OC(CO)C(O)C(O)C6O)NC(=O)C(C(O)C6CNC(=N)N6)NC5=O)cc4)C(O)C3O)C(O)C(O)C2O)cc1OCc1ccccc1 (centres unmarked) [Example 239]    1
CC(c1ccccc1)C1NC(=O)CNC(=O)C(CO)NC(=O)C(CC2CNC(=N)N2C2OC(CO)C(O)C(O)C2O)NC(=O)C(CC2CNC(=N)N2)NC(=O)C(Cc2ccc(OC3OC(CO)C(OC4OC(CO)C(O)C(OCc5ccc(OCc6ccccc6)cc5)C4O)C(O)C3O)cc2)NC1=O (centres unmarked) [Example 246b]    64

Please report MIC Coagulase Negative Staphylococcus (GC 6257) for every entry that follows.
1. CC(c1ccccc1)C1NC(=O)CNC(=O)C(CO)NC(=O)C(C(O)C2CN(Cc3ccc(C(F)(F)F)cc3)C(=N)N2C2OC(CO)C(O)C(O)C2O)NC(=O)C(C(O)C2CNC(=N)N2)NC(=O)C(Cc2ccc(OC3OC(CO)C(OC4OC5COC6(OC5C(O)C4O)C4CC5CC(C4)CC6C5)C(O)C3O)cc2)NC1=O (centres unmarked) [Example 226]
2. CC(c1ccccc1)C1NC(=O)CNC(=O)C(CO)NC(=O)C(CC2CNC(=N)N2C2OC(CO)C(O)C(O)C2O)NC(=O)C(CC2CNC(=N)N2)NC(=O)C(Cc2ccc(OC3OC(CO)C(OC4OC(CO)C(OCc5ccc(OCc6ccccc6)cc5)C(O)C4O)C(O)C3O)cc2)NC1=O (centres unmarked) [Example 246a]
3. COc1ccc(COCC2OC(OC3C(CO)OC(Oc4ccc(CC5NC(=O)C(C(C)c6ccccc6)NC(=O)CNC(=O)C(CO)NC(=O)C(C(O)C6CNC(=N)N6C6OC(CO)C(O)C(O)C6O)NC(=O)C(C(O)C6CNC(=N)N6)NC5=O)cc4)C(O)C3O)C(O)C(O)C2O)c2ccccc12 (centres unmarked) [Example 240]
4. COc1ccc(COCC2OC(OC3C(CO)OC(Oc4ccc(CC5NC(=O)C(C(C)c6ccccc6)NC(=O)CNC(=O)C(CO)NC(=O)C(C(O)C6CNC(=N)N6C6OC(CO)C(O)C(O)C6O)NC(=O)C(C(O)C6CNC(=N)N6)NC5=O)cc4)C(O)C3O)C(O)C(O)C2O)cc1F (centres unmarked) [Example 237]
5. CCC(C)C(=O)OC1C(CO)OC(OC2C(CO)OC(Oc3ccc(CC4NC(=O)C(C(C)c5ccccc5)NC(=O)CNC(=O)C(CO)NC(=O)C(C(O)C5CNC(=N)N5C5OC(CO)C(O)C(O)C5O)NC(=O)C(C(O)C5CNC(=N)N5)NC4=O)cc3)C(O)C2O)C(O)C1O (centres unmarked) [Example 278c]
6. CC(c1ccccc1)C1NC(=O)CNC(=O)C(CO)NC(=O)C(C(O)C2CNC(=N)N2C2OC(CO)C(O)C(O)C2O)NC(=O)C(C(O)C2CNC(=N)N2)NC(=O)C(Cc2ccc(OC3OC(CO)C(OC4OC5COC(C6CCCCC6)OC5C(O)C4O)C(O)C3O)cc2)NC1=O (centres unmarked) [Example 112]
7. COc1ccc(COC2C(CO)OC(OC3C(CO)OC(Oc4ccc(CC5NC(=O)C(C(C)c6ccccc6)NC(=O)CNC(=O)C(CO)NC(=O)C(C(O)C6CNC(=N)N6C6OC(CO)C(O)C(O)C6O)NC(=O)C(C(O)C6CNC(=N)N6)NC5=O)cc4)C(O)C3O)C(O)C2O)cc1OCc1ccccc1 (centres unmarked) [Example 239a]

Result:
1: 2; 2: 2; 3: 2; 4: 1; 5: 2; 6: 1; 7: 2

Form field MIC Coagulase Negative Staphylococcus (GC 6257), entry CC(c1ccccc1)C1NC(=O)CNC(=O)C(CO)NC(=O)C(C(O)C2CNC(=N)N2C2OC(CO)C(O)C(O)C2O)NC(=O)C(C(O)C2CNC(=N)N2)NC(=O)C(Cc2ccc(OC3OC(CO)C(OC4OC(CO)C(OCC=Cc5ccc(N(C)C)cc5)C(O)C4O)C(O)C3O)cc2)NC1=O (centres unmarked) [Example 243a] : 16

* * *

Could you please report measured MIC Streptococcus pneumoniae (ATCC 6301) for the items listed next?
# Test system: Streptococcus sp.
# assayRemarks: in vitro antibacterial evaluation, MIC by broth dilution
# Type: cell-based
# details: broth dilution, inoculum 5×10^5 CFU/mL, 18 hours at 35° C.; strain ATCC 6301
Numbers only, in µg/mL.

Cc1ccc(Oc2cccc(C3OCC4OC(OC5C(CO)OC(Oc6ccc(CC7NC(=O)C(C(C)c8ccccc8)NC(=O)CNC(=O)C(CO)NC(=O)C(C(O)C8CNC(=N)N8C8OC(CO)C(O)C(O)C8O)NC(=O)C(C(O)C8CNC(=N)N8)NC7=O)cc6I)C(O)C5O)C(O)C(O)C4O3)c2)cc1 (stereo not shown)    4

Here's the next entry for you.
The molecule COc1ccc2cc(COC3C(OC4C(CO)OC(Oc5ccc(CC6NC(=O)C(C(C)c7ccccc7)NC(=O)CNC(=O)C(CO)NC(=O)C(C(O)C7CNC(=N)N7C7OC(CO)C(O)C(O)C7O)NC(=O)C(C(O)C7CNC(=N)N7)NC6=O)cc5)C(O)C4O)OC(CO)C(O)C3O)ccc2c1 (stereo not shown) [Example 230c] , tested on Streptococcus sp., showed MIC Streptococcus pneumoniae (ATCC 6301) of 32

* * *

# Tested on: Staphylococcus sp.
# assayRemarks: in vitro antibacterial evaluation, MIC by broth dilution
# Format: cell-based
# details: broth dilution, 18 hours at 35° C.
readoutType: MIC Staphylococcus aureus (GC 4541) (µg/mL)
Answers are plain numbers, in µg/mL.

Form field MIC Staphylococcus aureus (GC 4541), entry CC(c1ccccc1)C1NC(=O)CNC(=O)C(CO)NC(=O)C(C(O)C2CNC(=N)N2C2OC(CO)C(O)C(O)C2O)NC(=O)C(C(O)C2CNC(=N)N2)NC(=O)C(Cc2ccc(OC3OC(CO)C(OC4OC5COC(CC(C)(C)C)OC5C(O)C4O)C(O)C3O)cc2)NC1=O (centres unmarked) : 1

* * *

# Test system: Escherichia coli
# assayRemarks: in vitro antibacterial evaluation, MIC by broth dilution
# Type: cell-based
# details: strain ATCC 25922, 18 hours at 35° C.
readoutType: MIC Escherichia coli (ATCC 25922)

CC(C)=CCCC(C)=CCOc1ccc(C2OCC3OC(OC4C(CO)OC(Oc5ccc(CC6NC(=O)C(C(C)c7ccccc7)NC(=O)CNC(=O)C(CO)NC(=O)C(C(O)C7CNC(=N)N7C7OC(CO)C(O)C(O)C7O)NC(=O)C(C(O)C7CNC(=N)N7)NC6=O)cc5)C(O)C4O)C(O)C(O)C3O2)cc1 (centres unmarked)    >64 µg/mL

Here's the next entry for you.
The compound CC(c1ccccc1)C1NC(=O)CNC(=O)C(CO)NC(=O)C(C(O)C2CNC(=N)N2C2OC(CO)C(O)C(O)C2O)NC(=O)C(C(O)C2CNC(=N)N2)NC(=O)C(Cc2ccc(OC3OC(CO)C(OC4OC5COC(c6ccc(S(C)(=O)=O)cc6)OC5C(O)C4O)C(O)C3O)cc2)NC1=O (centres unmarked) , tested on Escherichia coli, showed MIC Escherichia coli (ATCC 25922) of >64 µg/mL
